Target: T1, RSV postfusion F (postF), subtype A (respiratory syncytial virus subtype A, UniProt P03420 26-513)
T1 construct: also called Postfusion subtype A; F deltaFP
Method summary: BLI, IgG
Parameter measured: Kd (nM)
Report the value in nM with no unit label.

Task item: Record request: Kd value, item ADI-14358 (antibody, V domains shown, full-length IgG; also called Ab 26) VH: QVQLVQSGGGLVKPGGSLRLSCVASGFTFSDYYMTWIRQAPGKGLEWVSYISGSSAYTIYADSVKGRFTISRDNAKNSLYLQMNGLRAEDTAVYYCARVSWVRSLDSWGQGTLVTVSS VL: QSALTQPASVSGSPGQSITISCTGSTSDVGLYNYVSWYQLHPGKAPKLIIYDVRHRPSGVSDRFSASKSGNTASLTISGLQAEDEADYYCCSYTSSSTYVFGSGTQLTVL
Reply: 0.656

Task item: Record request: Kd value, item ADI-14379 (antibody, V domains shown, full-length IgG; also called Ab 47) VH: EVQLLESGGGVVQPGRSLRLSCAASGFTFSSYAMHWVRQAPGKGLEWVAVIGNDGTNKYHADSVKGRFTISRDNSKNTLYLQMNSLRAEDTAVYYCARRRVGIMYSGSYWGGMDVWGQGTTVTVSS VL: SYELTQPPSVSVSPGQTASITCSGDKLGGKYVSWYQQKPGQSPVLVMYQDTRRPSGIPERLSGSNSGSTATLTISATQAMDEADYYCQAWDITTVHVVFGGGTKLTVL
Reply: 3.29

Task item: Record request: Kd value, item ADI-14350 (antibody, V domains shown, full-length IgG; also called Ab 18) VH: EVQLVESGPGLVKPSETLSLTCTVSGDSVSNNNYYWNWIRQSPGKGLEWIGYIYYSGSTDYNPSLKSRVTISVDTSKNQFSLNLRSVTAADTAIYFCASAPWGMFTILGVVP VL: QSVLTQPPSVSGAPGQRVTISCTGSSSNIGAGYDVHWYQQLPGTAPKLLIYGSSNRPSGVPDRFSGSRSGTSASLAITGLQAEDEADYYCQSYDGSLGVYVFATGTKVTVL
Reply: 0.264

Task item: Record request: Kd value, item ADI-19486 (antibody, V domains shown, full-length IgG) VH: QVQLQESGPGLVKPSETLSLTCSVSGGSLTSYYWSWIRQPPGKGLEWIGYIYYSGSTNYNPSLKSRLTISVDTSKNQFSLKLSSVTAADTAVYYCARVGGRGVINVFDYWGQGTLVTVSS VL: QPVLTQPASVSGSPGQSITISCTGTSSDVGGYNYVSWYQQHPGKAPKLMIYEVSNRPSGVSNRFSGSKSGNTASLTISGLQAEDEADYYCDSYRSNSASVVFGGGTKLTVL
Reply: 0.525

Task item: Record request: Kd value, item ADI-19480 (antibody, V domains shown, full-length IgG) VH: EVQLVESGGGLVKPGGSLRLSCAASGFTFSAYSMNWVRQAPGKGLEWVSSISSTTNYISYADSVKGRFTISRDNAKNSLYLQMNSLRAEDTAVYYCARDPKYYGLGTYYKDDYWGQGTLVTVSS VL: NFMLTQPHSVSESPGKTVTISCTRSGGSIASNYVQWYQQRPGSSPTTVIYEDNQRPSGVPDRFSGSIDSSFNSASLTVSGLKTEDEADYYCQSFDNNNRWVFGGGTKLTVL
Reply: 0.129

Task item: Record request: Kd value, item ADI-22780 (antibody, V domains shown, full-length IgG) VH: EVQLVESGPTLVKPTQTLTLTCTFSGFSLSTSGVGVGWIRQPPGKALEWLALIYWDDDKRYSPSLKSRLTITKDTSKNQVVLTMTNMDPVDTATYYCAHRGRQYSYGYYYFDYWGQGTLVTVSS VL: QSVLIQPASVSGSPGQSITISCTGTSSDVGGYNFVSWYQQHPGKAPKLMIYDVSNRPSGVSNRFSGSKSGNTASLTISGLQAEDEADYYCSSYTSSTLDVFGTGTKVTVL
Reply: 0.739

Recorded values, source patent US20260258115A1.
